Origin of values: patent US20250026721A1

biological target: PIK3CA (Homo sapiens); construct: endogenous in cells; test: In vitro ELISA target engagement assay for PIK3CA in Jurkat cellular lysate (competition with PIK3CA Biotin Probe); settings: 1 hour at rt, then 500 nM PIK3CA Biotin Probe, read-out: Elisa Target Engagement Assay (TE50)
Sequence (P42336 whole entry): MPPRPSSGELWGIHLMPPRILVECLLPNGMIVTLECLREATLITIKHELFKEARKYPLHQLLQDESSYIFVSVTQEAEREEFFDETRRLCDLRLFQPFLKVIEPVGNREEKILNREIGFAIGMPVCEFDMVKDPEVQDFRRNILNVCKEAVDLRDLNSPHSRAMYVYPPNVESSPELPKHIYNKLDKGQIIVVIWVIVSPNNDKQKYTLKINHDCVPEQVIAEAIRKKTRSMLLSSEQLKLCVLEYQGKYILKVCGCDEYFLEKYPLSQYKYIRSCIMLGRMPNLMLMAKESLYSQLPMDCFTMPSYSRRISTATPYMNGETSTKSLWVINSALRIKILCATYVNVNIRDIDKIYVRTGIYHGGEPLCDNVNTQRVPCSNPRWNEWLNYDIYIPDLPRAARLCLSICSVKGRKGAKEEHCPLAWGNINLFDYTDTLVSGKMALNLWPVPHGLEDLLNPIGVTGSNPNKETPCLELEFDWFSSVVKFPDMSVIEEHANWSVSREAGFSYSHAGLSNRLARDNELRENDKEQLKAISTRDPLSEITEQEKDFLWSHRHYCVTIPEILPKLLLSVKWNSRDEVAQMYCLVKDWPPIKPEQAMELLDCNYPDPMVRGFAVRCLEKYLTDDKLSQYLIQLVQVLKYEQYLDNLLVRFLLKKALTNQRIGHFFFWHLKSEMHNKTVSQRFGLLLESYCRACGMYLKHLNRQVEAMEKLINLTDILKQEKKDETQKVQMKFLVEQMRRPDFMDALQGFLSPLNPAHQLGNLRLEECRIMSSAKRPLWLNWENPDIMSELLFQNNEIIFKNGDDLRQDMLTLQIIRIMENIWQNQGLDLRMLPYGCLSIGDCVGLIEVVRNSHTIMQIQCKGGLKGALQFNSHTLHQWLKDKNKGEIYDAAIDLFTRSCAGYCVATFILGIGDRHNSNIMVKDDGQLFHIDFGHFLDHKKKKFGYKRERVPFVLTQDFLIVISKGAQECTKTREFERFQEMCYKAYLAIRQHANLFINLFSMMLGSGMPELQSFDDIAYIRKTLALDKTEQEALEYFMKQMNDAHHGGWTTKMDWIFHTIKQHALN
Sequence (P27986 whole entry partner): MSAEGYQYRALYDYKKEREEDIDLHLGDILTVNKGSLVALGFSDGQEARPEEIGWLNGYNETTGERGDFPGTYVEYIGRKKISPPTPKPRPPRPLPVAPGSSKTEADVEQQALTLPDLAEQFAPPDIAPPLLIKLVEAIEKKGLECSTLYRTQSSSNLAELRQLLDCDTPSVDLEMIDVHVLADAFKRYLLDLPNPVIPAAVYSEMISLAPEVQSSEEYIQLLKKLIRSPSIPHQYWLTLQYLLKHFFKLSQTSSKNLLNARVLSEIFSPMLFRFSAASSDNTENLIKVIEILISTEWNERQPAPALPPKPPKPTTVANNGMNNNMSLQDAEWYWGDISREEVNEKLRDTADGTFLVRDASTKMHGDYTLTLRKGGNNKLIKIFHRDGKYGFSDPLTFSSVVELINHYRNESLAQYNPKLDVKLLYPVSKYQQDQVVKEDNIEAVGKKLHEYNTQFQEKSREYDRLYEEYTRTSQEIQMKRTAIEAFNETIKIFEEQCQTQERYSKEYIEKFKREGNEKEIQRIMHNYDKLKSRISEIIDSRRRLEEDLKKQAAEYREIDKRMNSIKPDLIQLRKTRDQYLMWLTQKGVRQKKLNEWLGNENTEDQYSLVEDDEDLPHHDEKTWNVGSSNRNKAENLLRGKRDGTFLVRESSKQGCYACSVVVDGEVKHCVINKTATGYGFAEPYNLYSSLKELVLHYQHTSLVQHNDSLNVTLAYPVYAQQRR
pIC50: −log10 of the molar value.
readoutType: pIC50

molecule | pIC50
C[C@H](/C=C\S(C)(=O)=O)NC(=O)[C@]1(F)CCCN(S(=O)(=O)c2ccc(C(F)(F)F)cc2-c2ccccc2Cl)CC1 [Compound 311] | 6.09
COc1ccc(Cl)c(-c2cc(Cl)ncc2S(=O)(=O)N2CCC(F)(C(=O)N[C@H](C)/C=C\S(C)(=O)=O)CC2)c1 [Compound 217] | 5.84
C[C@H](/C=C\S(C)(=O)=O)NC(=O)C1(F)CCN(S(=O)(=O)c2ccc(CO)cc2-c2ccccc2Cl)CC1 [Compound 130] | 6.33
Cc1cccc(-c2cc(Br)ccc2S(=O)(=O)N2CCC(F)(C(=O)N[C@H](C)/C=C\S(C)(=O)=O)CC2)c1Cl [Compound 59] | 6.15

[a] CCc1ccc(S(=O)(=O)N2CCC(F)(C(=O)N[C@H](C)/C=C\S(C)(=O)=O)CC2)c(-c2ccccc2)c1 [Compound 112]
[b] C=C(C)c1ccc(S(=O)(=O)N2CCC(F)(C(=O)N[C@H](C)/C=C\S(C)(=O)=O)CC2)c(-c2ccccc2Cl)c1 [Compound 109]
Of the pair a and b , name the member with the lesser recorded pIC50. Could you answer with the label of the item you picked?
a
(a: 6.11, b: 6.44)
